measurement-description: in vivo
Set-up: species or system female C3H/HeN mice
condition-details: mouse, plasma, iv, 40 mg/kg, 40 mg.kg^-1 i.v., 14h after dose, MEAN, read-out: Plasma product Ic concentration
parameter-measured: concentration at 14 h (ng/mL)
All answers are understood in ng/mL, so give the number only.

## Task Would you mind telling me what concentration at 14 h value was observed for CO[C@H]1C(=O)[C@]2(C)[C@@H](OC)C[C@H]3OC[C@@]3(OC(C)=O)[C@H]2[C@H](OC(=O)c2ccccc2)[C@]2(O)C[C@H](OC(=O)[C@H](O)[C@@H](NC(=O)OC(C)(C)C)c3ccccc3)C(C)=C1C2(C)C [product Ia] ?
## Result 56
